System: hFas L/BHK-21 (BHK-21 cells in which human Fas L cDNA was transfected)
test details: Test for inhibition of Fas L solubilization (sFas L in culture supernatant by sandwich-ELISA)
Format: cell-based
condition description: BHK-21; sFas L secretion inhibition at 5, 2.5, 1.25, 0.625 µM; probit method
Assignment: determine reported IC50 for the given compounds.
Value expressed in nM; do not type the unit.

Task: Consider the compound NS(=O)(=O)c1ccc(CCNC(=O)[C@H](CC2CCCCC2)NC(=O)[C@H](CCCc2ccccc2)CC(=O)NO)cc1 and give its recorded IC50.
Output: 1100

Task: For the compound CNC(=O)[C@H](Cc1ccccc1)NC(=O)[C@H](CC(C)C)[C@H](CSc1ccccc1)C(=O)NO , report IC50.
Output: 2200

Task: Note down IC50 recorded for CNC(=O)[C@H](Cc1ccccc1)NC(=O)[C@H](CC(C)C)[C@H](CSc1cccs1)C(=O)NO
Output: 1600

Task: Determine its reported IC50: CNC(=O)[C@H](Cc1ccc(OC)cc1)NC(=O)[C@H](CC(C)C)[C@H](C)C(=O)NO
Output: 1500
